Give measured normalized growth for each item. Keep answers brief.
assay.explanation: chemical genetic growth profiling, strain panel (AID 1159580);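 further: tested at 20 µM; growth read once vehicle control cultures reached saturation at 30 °C; 1 = growth at the plate median or of vehicle wells; lower values mean less growth of the strain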
experimental.context: S. cerevisiae deletion strains, growth OD, locus YPL256C, strain CLN2, stronger effect = lower value
In all, about 5,500 compounds went through this assay and about 2,000 (36%) were called active. Another 18% or so got no clear call; they are omitted. The list shows a part of the results.
# output: bare number, no unit

Which normalized growth is reported for this compound? `Cc1scc2c1N(C(=O)CN1CCN(C)CC1)c1ccccc1NC2=O`
1.1

Next compound: `O=C(O)c1cc(O)c2c(c1)[C@@H]([C@H]1c3cc(C(=O)O)cc(O)c3C(=O)c3c(O[C@H]4O[C@H](CO)[C@@H](O)[C@H](O)[C@H]4O)cccc31)c1cccc(O[C@H]3O[C@H](CO)[C@@H](O)[C@H](O)[C@H]3O)c1C2=O`
1.03

Next compound: `O=C(O)c1cc(O)c2c(c1)[C@@H]([C@@H]1c3cc(C(=O)O)cc(O)c3C(=O)c3c(O[C@H]4O[C@H](CO)[C@@H](O)[C@H](O)[C@H]4O)cccc31)c1cccc(O[C@H]3O[C@H](CO)[C@@H](O)[C@H](O)[C@H]3O)c1C2=O`
1.08

Next compound: `Cc1nn(-c2cccc(Cl)c2)c2oc(=O)cc(C(F)(F)F)c12`
0.201

Next compound: CN(C)CCC(c1ccc(Cl)cc1)c1ccccn1 (stereo not given)
0.94

###

assay.explanation: chemical genetic growth profiling, strain panel (AID 1159580);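 further: tested at 20 µM; growth read once vehicle control cultures reached saturation at 30 °C; 1 = growth at the plate median or of vehicle wells; lower values mean less growth of the strain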
experimental.context: S. cerevisiae deletion strains, growth OD, locus YDR363W, strain ESC2, stronger effect = lower value
Out of some 5,500 compounds screened, about 2,000 (36%) were called active. Another 18% or so got no clear call; they are omitted. This is one part of the list.
measurement.label: normalized growth
# output: bare number, no unit

Which normalized growth is reported for this compound? `C[C@@H](NC(=O)/C(C#N)=C/c1ccc(O)c(O)c1)c1ccccc1`
1.01

Next compound: `CC1(C)CCC=[N+]1[O-]`
1.02

Next compound: `O=C1c2ccccc2-c2n[nH]c3cccc1c23`
0.906

Next compound: `C=C/C(C)=C/[C@@]1(C)SC(=O)C(C)=C1O`
1.02

Next compound: CCN1CCCC1CNC(=O)c1cc(S(N)(=O)=O)ccc1OC (configuration not stated)
0.962

Next compound: COc1cc(CC(C)N)c(OC)cc1I (configuration not stated)
1.04

Next compound: `O=C(O)c1cc[c]([Hg][Cl])cc1`
0.943

###

assay.explanation: chemical genetic growth profiling, strain panel (AID 1159580);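 further: tested at 20 µM; growth read once vehicle control cultures reached saturation at 30 °C; 1 = growth at the plate median or of vehicle wells; lower values mean less growth of the strain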
experimental.context: S. cerevisiae deletion strains, growth OD, locus YBR009C, strain hhf1, stronger effect = lower value
In all, about 5,500 compounds went through this assay and about 2,000 (36%) were called active. About 18% were inconclusive and are not listed. This is one part of the list.
Give measured normalized growth for each item. Keep answers brief.
# output: bare number, no unit

Which normalized growth is reported for this compound? `CC(=O)Nc1ccc(S(=O)(=O)Nc2onc(C)c2C)cc1`
0.959

Next compound: `COC(=O)c1c(C)c2c(c(C)c1O)OC(=O)c1c(C)c(Cl)c(O)c(Cl)c1O2`
0.935

Next compound: `CNCCCC12CCC(c3ccccc31)c1ccccc12`
0.992

Next compound: O=P1(N(CCCl)CCCl)NCCCO1 (stereo not given)
1.01

Next compound: `COC(=O)/C(=C1\OC(=O)C(c2ccccc2)=C1O)c1ccccc1`
1

Next compound: CC(CCc1ccccc1)NCC(O)c1ccc(O)c(C(N)=O)c1 (stereo not given)
1

Next compound: C/C=C\C1=C(C(=O)O)N2C(=O)C(NC(=O)C(N)c3ccc(O)cc3)C2SC1 (stereo not given)
1.01

Next compound: `C=C1c2c(Cl)ccc(O)c2C(O)=C2C(=O)[C@]3(O)C(O)=C(C(N)=O)C(=O)[C@@H](N(C)C)[C@@H]3[C@@H](O)[C@H]12`
0.958

Next compound: `COC(=O)c1c(OC)cc2c(c1C)Oc1c(Cl)c(O)c(Cl)c(C)c1C(=O)O2`
0.993

Next compound: `CN(C)[C@@H]1C(=O)C(C(N)=O)=C(O)[C@@]2(O)C(=O)C3=C(O)c4c(O)cccc4[C@@](C)(O)[C@H]3[C@H](O)[C@@H]12`
1.01

Next compound: `COC(=O)c1c(OC)cc2c(c1C)Oc1c(Cl)c(OC(C)=O)c(Cl)c(C)c1C(=O)O2`
1.02

Next compound: CC(C)NCC(O)COc1ccc(COCCOC(C)C)cc1 (stereo not given)
0.998

Next compound: `NC1=NCCN1CC(=O)O`
1

Next compound: CC(C)CCCC(C)[C@H]1CCC2C3C(=O)C=C4C[C@@H](O)CC[C@]4(C)C3CC[C@@]21C (stereo not given in full)
1.06

Next compound: `O=C(O)c1cc(O)c2c(c1)[C@@H]([C@H]1c3cc(C(=O)O)cc(O)c3C(=O)c3c(O[C@H]4O[C@H](CO)[C@@H](O)[C@H](O)[C@H]4O)cccc31)c1cccc(O[C@H]3O[C@H](CO)[C@@H](O)[C@H](O)[C@H]3O)c1C2=O`
1.04

Next compound: `COc1cc(C(C)=O)cc(OC)c1O`
1.04

Next compound: CC(C)(C)NCC(O)c1ccc(O)c(CO)c1 (stereo not given)
0.998

Next compound: `C[C@H]1c2cccc(O)c2C(O)=C2C(=O)[C@]3(O)C(O)=C(C(N)=O)C(=O)[C@@H](N(C)C)[C@@H]3[C@@H](O)[C@@H]21`
0.958

Next compound: `Cc1cc(=O)oc2cc(O)c(O)cc12`
0.963

Next compound: `Cc1cc(=O)oc2cc(O)cc(O)c12`
0.949
